Exercise: for every item that follows, state its recorded protein stability index.
B1: ZNF511 (parent)
chain: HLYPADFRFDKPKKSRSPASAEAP

- Variants of: B1
- PROCEDURE_SUMMARY: protein stability index of a GFP-peptide fusion (GPS, HEK-293T) (PSI 1-6); higher = more stable;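 further: lentivirally expressed fusions sorted by FACS into six bins by GFP to DsRed ratio, PSI derived from sequencing read proportions per bin multiplied by bin number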
- MEASUREMENT_PARAMETERS: c terminus: a fixed tail appended
One number for each entry.

MUTATION_LABEL	ENDPOINT_NAME	RECORDED_VALUE
A19G	protein stability index	3.02
E22W	protein stability index	2.44
A21E	protein stability index	3.08
D10R	protein stability index	2.71

Give me protein stability index for each of these variants, listed below.
1. A5W
2. R16L
3. D10P
4. Y3K
5. S17L
6. Y3A
7. D6K
8. S15K

Completion:
1. 1.63
2. 2.97
3. 2.54
4. 3.84
5. 2.9
6. 4.14
7. 2.22
8. 3.24

Look up protein stability index for the entries below, preserving their order.
1. S17C
2. S15H
3. D6I
4. S15G
5. A23W
6. H1I
7. E22C
8. K14F

Completion:
[2.9, 2.93, 1.47, 2.86, 2.82, 2.85, 2.67, 2.26]

Record protein stability index for all entries; do not skip any.
1. L2I
2. A5Y
3. Y3S
4. A21G
5. K14N
6. K14I
7. F9I
8. P18V

Completion:
1.9
2.79
3.64
3
3.04
2.67
2.49
2.33

Quick request: protein stability index for each listed item, please.
1. A5T
2. K13V
3. A23L
4. F7Y
5. H1F
6. F9C
7. L2H

Completion:
1. 3.11
2. 2.22
3. 2.88
4. 3.29
5. 4.32
6. 2.61
7. 3.58
